# system_name: HLA-A*30:01
# method_description: IEDB peptide-MHC binding, purified MHC/competitive/radioactivity; filed as Kd, often an IC50 or EC50 that approximates it; bounds were set here for any values at or beyond the usual limits of such assays
# experimental_setup: source organism: Mammarenavirus whitewaterense
readout: Kd (nM)

SSIIRSLPK	180

---

# system_name: HLA-B*44:02
# method_description: IEDB peptide-MHC binding, purified MHC/competitive/radioactivity; filed as Kd, often an IC50 or EC50 that approximates it; bounds were set here for any values at or beyond the usual limits of such assays
# experimental_setup: source organism: Dengue virus 4 Philippines/H241/1956
pKd: −log10 of the molar value.
readout: pKd

SEVCDHRLM	7.59
